Reported MLD (minimum lethal dose) by item:
Tested on: ddY-strain male mice
Assay: Acute toxicity (minimum lethal dose)
Format: in vivo
Conditions: intravenous, mortality at 14 days after administration
outcome-measure: MLD (minimum lethal dose) (mg/kg)

# compound, target, reported-value
measured = [
    ("COC(=O)c1c(C)[nH]c2c(OC(C)=O)cc3c(c12)C(CBr)CN3C(=O)c1cc2cc(OC)c(OC)c(OC)c2[nH]1 (stereo not drawn) [Compound 6]", "ddY-strain male mice", 0.25),
    ("COC(=O)c1c(C)[nH]c2c(OC(C)=O)cc3c(c12)C(CBr)CN3C(=O)/C=C/c1ccc(OC)cc1 (stereo not drawn) [Compound 14]", "ddY-strain male mice", 2.0),
    ("COC(=O)c1c(C)[nH]c2c(OC(=O)N(C)N)cc3c(c12)C(CBr)CN3C(=O)/C=C/c1ccc(OC)cc1 (stereo not drawn) [Compound 30]", "ddY-strain male mice", 2.0),
    ("COC(=O)Oc1cc2c(c3c(C(=O)OC)c(C)[nH]c13)C(CBr)CN2C(=O)c1cc2cc(OC)c(OC)c(OC)c2[nH]1 (stereo not drawn) [Compound 7]", "ddY-strain male mice", 0.50),
    ("COC(=O)c1c(C)[nH]c2c(OC(=O)c3ccc(-n4cccc4)cc3)cc3c(c12)C(CBr)CN3C(=O)/C=C/c1ccc(OC)cc1 (stereo not drawn) [Compound 26]", "ddY-strain male mice", 2.0),
    ("CCN(CC)c1ccc(C(=O)Oc2cc3c(c4c(C(=O)OC)c(C)[nH]c24)C(CBr)CN3C(=O)/C=C/c2ccc(OC)cc2)cc1 (stereo not drawn) [Compound 25]", "ddY-strain male mice", 2.0),
]
